System: Zoysia japonica
Assay: Turf grass selectivity, greenhouse pot test
Assay type: in vivo
Conditions: Zoysia japonica, 400 g ai/ha, 2 weeks
Assignment: determine reported phytotoxicity (visual assessment 0-10) for the given compounds.
Would you mind answering with just the numeric figure?

*Q* Which measured phytotoxicity (visual assessment 0-10) value corresponds to Cc1cc(C)nc(NC(=O)NS(=O)(=O)c2ccccc2C(O)C(C)F)n1 (stereo not shown) ?
*A* 0

*Q* Note, next up: COc1cc(OC)nc(NC(=O)NS(=O)(=O)c2ncccc2C(F)(F)F)n1 [Control chemical No. 2, Flazasulfuron, reference compound]
*A* 7

*Q* Field entry: CCOC(=O)c1cnn(C)c1S(=O)(=O)NC(=O)Nc1nc(OC)cc(OC)n1 [Control chemical No. 1, Pyrazosulfuron ethyl, reference compound]
*A* 0

*Q* Now the compound "COc1nc(C)nc(NC(=O)NS(=O)(=O)c2cscc2C2(CF)OCCO2)n1"
*A* 4
